# protocol.details: Aqueous solubility in PBS
# Type: physicochemical
# measurement.setup: phosphate buffered saline (PBS), aqueous buffer; PBS pH 7.4, room temperature (23° C.)
property: solubility (µg/mL)
Form entry: value (µg/mL) — number only.

Tell me its solubility given O=C(c1ccoc1)N1CCN(c2cc(-c3ccco3)nc3cc(-c4ccccc4)nn23)CC1 [Compound 1] as the entry.
0.51

---

# experimental.system: ABCB1 / ABCG2 (Homo sapiens)
# Sequence (Q9UNQ0 whole entry): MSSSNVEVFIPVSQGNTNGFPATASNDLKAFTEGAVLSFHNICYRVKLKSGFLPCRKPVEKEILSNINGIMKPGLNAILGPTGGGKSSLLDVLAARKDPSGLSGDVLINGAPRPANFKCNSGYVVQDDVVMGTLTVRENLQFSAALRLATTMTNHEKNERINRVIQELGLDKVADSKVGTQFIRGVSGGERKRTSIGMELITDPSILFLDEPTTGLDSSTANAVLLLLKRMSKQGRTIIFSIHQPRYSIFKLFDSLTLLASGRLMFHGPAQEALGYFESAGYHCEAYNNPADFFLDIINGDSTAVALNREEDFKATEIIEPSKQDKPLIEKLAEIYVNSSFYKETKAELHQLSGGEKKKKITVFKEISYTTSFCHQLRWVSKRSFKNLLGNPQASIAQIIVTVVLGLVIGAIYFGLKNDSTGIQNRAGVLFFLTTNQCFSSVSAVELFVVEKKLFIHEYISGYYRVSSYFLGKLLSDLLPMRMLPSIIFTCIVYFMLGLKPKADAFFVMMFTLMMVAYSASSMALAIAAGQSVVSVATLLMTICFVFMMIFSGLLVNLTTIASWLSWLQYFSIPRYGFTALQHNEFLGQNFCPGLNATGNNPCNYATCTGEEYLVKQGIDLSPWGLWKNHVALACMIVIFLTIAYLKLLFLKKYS
# protocol.details: JC-1 efflux inhibition dose response, flow cytometry, Ig-MXP3 cells
# measurement.setup: human, probe JC-1 (1 µM), ~Fold G2 Selective (B1/G2), quotient of average ABCB1 IC50 and average ABCG2 IC50, efflux assay
property: selectivity ratio at 30 min
Give a plain numeric answer without units written out.

Sample records with selectivity ratio at 30 min:
record.smiles	property	measured.value
O=C(c1ccc(Cl)cc1)N1CCN(c2cc(-c3ccccc3)nc3cc(-c4cccc(Cl)c4)nn23)CC1	selectivity ratio at 30 min	0.9
COc1cccc(-c2cc(N3CCN(C(=O)c4ccoc4)CC3)n3nc(-c4cccc(Cl)c4)cc3n2)c1	selectivity ratio at 30 min	1.9
COc1ccc(C(=O)N2CCN(c3cc(-c4ccccc4)nc4cc(-c5cccc(Cl)c5)nn34)CC2)cc1	selectivity ratio at 30 min	1
O=C(c1ccoc1)N1CCN(c2cc(-c3ccccc3F)nc3cc(-c4cccc(Cl)c4)nn23)CC1	selectivity ratio at 30 min	2.4
O=C(c1ccco1)N1CCN(c2cc(-c3ccco3)nc3cc(-c4ccccc4)nn23)CC1	selectivity ratio at 30 min	2.4
O=C(c1ccco1)N1CCN(c2cc(-c3ccccc3)nc3cc(-c4ccc(Cl)cc4)nn23)CC1	selectivity ratio at 30 min	2.7

Let's switch to this compound now.
Tell me its selectivity ratio at 30 min given O=C(c1ccoc1)N1CCN(c2cc(-c3ccco3)nc3cc(-c4cccs4)nn23)CC1 as the entry.
5.4
